Catalogue of compounds with associated relative IC50
System: T-47D
Assay: relative IC50 (midpoint of fitted logistic curve, plateau may be below 50% inhibition; CellTiter-Glo viability); higher = less potent
Conditions: 4-OH-tamoxifen in medium 0 µM; 72 h

>>> result("CC[C@@]1(O)C(=O)OCc2c1cc1n(c2=O)Cc2cc3ccccc3nc2-1")
"44.2 nM"
>>> result("C[C@@H](Oc1cc(-c2cnn(C3CCNCC3)c2)cnc1N)c1c(Cl)ccc(F)c1Cl")
"> 1000 nM"
>>> result("CCc1c(C(=O)C(N)=O)c2c(OCC(=O)O)cccc2n1Cc1ccccc1")
"> 10000 nM"
>>> result("O=NN(CCCl)C(=O)NC1CCCCC1")
"> 10000 nM"
>>> result("O=C1NC(=O)[C@@H](c2cn3c4c(cccc24)CCC3)[C@@H]1c1c[nH]c2ccccc12")
"364 nM"

Kindly note the recorded relative IC50 for `CCNC(=O)CCC/C=C\C[C@@H]1[C@@H](/C=C/[C@@H](O)CCc2ccccc2)[C@H](O)C[C@@H]1O` , which is > 5500 nM

Entry `OC[C@H]1O[C@@H](n2cnc3c2N=CNC[C@H]3O)C[C@@H]1O` — recorded relative IC50 = 1900 nM

Record `CC(=O)Nc1cccc(-n2c(=O)n(C3CC3)c(=O)c3c(Nc4ccc(I)cc4F)n(C)c(=O)c(C)c32)c1` , field relative IC50: > 250 nM

relative IC50 recorded for this compound, `CC(=O)OC[C@H]1O[C@@H]([S-])[C@H](OC(C)=O)[C@@H](OC(C)=O)[C@@H]1OC(C)=O.CCP(CC)CC.[Au+]` , is 804 nM

So for Cn1nnc2c(C(N)=O)ncn2c1=O [Temozolomide] , the logged relative IC50 turned out to be > 10000 nM

The compound listed as `N#Cc1ccc(C(c2ccc(C#N)cc2)n2cncn2)cc1` has a reported relative IC50 of > 10000 nM

// field: relative IC50; key: `COC(=O)C[C@](O)(CCCC(C)(C)O)C(=O)O[C@@H]1C(OC)=C[C@]23CCCN2CCc2cc4c(cc2[C@H]13)OCO4` ; value = 138 nM

get_value(item= `NC(=O)Nc1cc(-c2cccc(F)c2)sc1C(=O)N[C@H]1CCCNC1` , readout=relative IC50) returns > 1000 nM

Lab note: measured relative IC50 of `Cc1ccc(F)c(NC(=O)Nc2ccc(-c3cccc4[nH]nc(N)c34)cc2)c1` was > 1000 nM

Per the record, CC(C)(C)NC(=O)[C@H]1CC[C@H]2[C@@H]3CC[C@H]4NC(=O)C=C[C@]4(C)[C@H]3CC[C@]12C [Finasteride] has relative IC50 of > 10000 nM

Kindly note the recorded relative IC50 for `CC[C@@]1(O)C(=O)OCc2c1cc1n(c2=O)Cc2cc3c(CN(C)C)c(O)ccc3nc2-1` , which is 77.9 nM

get_value(item= `Nc1ccccc1NC(=O)c1ccc(CNc2nccc(-c3cccnc3)n2)cc1` , readout=relative IC50) returns 3290 nM

# relative IC50 of `Cc1cc2c(F)c(Oc3ncnn4cc(OC[C@@H](C)O)c(C)c34)ccc2[nH]1` = > 1000 nM

Noted for `CC[C@]1(O)C[C@H]2CN(CCc3c([nH]c4ccccc34)[C@@](C(=O)OC)(c3cc4c(cc3OC)N(C=O)[C@H]3[C@@](O)(C(=O)OC)[C@H](OC(C)=O)[C@]5(CC)C=CCN6CC[C@]43[C@@H]65)C2)C1` : its relative IC50 reads 4.41 nM

Data point: COc1cc2nccc(Oc3ccc(NC(=O)C4(C(=O)Nc5ccc(F)cc5)CC4)cc3)c2cc1OC [Cabozantinib (XL184)] ; relative IC50 = > 1000 nM

----------
Some compounds, each annotated with its measured drug sensitivity score.
Test system: BT-474
Assay: drug sensitivity score (DSS) (DSS (dimensionless)); higher = more sensitive; extreme values may be limits of the assay
Details: 4-OH-tamoxifen in medium 0 µM; 72 h
API note: the answer field is a bare number with no unit suffix.

Worked cases, drug sensitivity score given:
>>> numeric_readout("Cc1nc(Nc2ncc(C(=O)Nc3c(C)cccc3Cl)s2)cc(N2CCN(CCO)CC2)n1")
0
>>> numeric_readout("CO[C@@H](C(=O)N1Cc2[nH]nc(NC(=O)c3ccc(N4CCN(C)CC4)cc3)c2C1)c1ccccc1")
0

The value of drug sensitivity score measured for the compound C/C(=C\c1csc(C)n1)[C@@H]1C[C@@H]2O[C@]2(C)CCC[C@H](C)[C@H](O)[C@@H](C)C(=O)C(C)(C)[C@@H](O)CC(=O)N1 [Ixabepilone] turned out to be 0

response.value for `Cc1c2oc3c(C)ccc(C(=O)N[C@@H]4C(=O)N[C@H](C(C)C)C(=O)N5CCC[C@H]5C(=O)N(C)CC(=O)N(C)[C@@H](C(C)C)C(=O)O[C@@H]4C)c3nc-2c(C(=O)N[C@@H]2C(=O)N[C@H](C(C)C)C(=O)N3CCC[C@H]3C(=O)N(C)CC(=O)N(C)[C@@H](C(C)C)C(=O)O[C@@H]2C)c(N)c1=O` (field: drug sensitivity score) = 11.2

drug sensitivity score in this record for `O=c1[nH]c(=O)n([C@H]2C[C@H](O)[C@@H](CO)O2)cc1F` : 1.78

Value of measured drug sensitivity score for the entry `O=C(O)CCCc1ccc(N(CCCl)CCCl)cc1` : 0

For reference, reported drug sensitivity score for `CO[C@@H]1[C@H](N(C)C(=O)c2ccccc2)C[C@H]2O[C@]1(C)n1c3ccccc3c3c4c(c5c6ccccc6n2c5c31)C(=O)NC4` stands at 3.45

----------
Tested on: BT-474
Test: viability inhibition at highest dose (% inhibition); higher = more growth inhibition
Conditions: 4-OH-tamoxifen in medium 0 µM; 72 h
Entries and their viability inhibition at highest dose values follow.
Would you mind answering with just the numeric figure?

>>> numeric_readout("CCC1(c2ccc(N)cc2)CCC(=O)NC1=O (stereo unspecified) [Aminoglutethimide] (drug 10000 nM)")
-3.67
>>> numeric_readout("C=CCn1c(=O)c2cnc(Nc3ccc(N4CCN(C)CC4)cc3)nc2n1-c1cccc(C(C)(C)O)n1 [MK-1775] (drug 10000 nM)")
25
>>> numeric_readout("O=S(=O)(c1cccc2cnccc12)N1CCCNCC1 [Fasudil (HA-1077)] (drug 50000 nM)")
-7
>>> numeric_readout("CCC/C=C/C=C/C(=O)O[C@H]1/C(=C/C(=O)OC)C[C@H]2C[C@H]([C@@H](C)O)OC(=O)C[C@H](O)C[C@@H]3C[C@H](OC(C)=O)C(C)(C)[C@](O)(C[C@@H]4C/C(=C/C(=O)OC)C[C@H](/C=C/C(C)(C)[C@]1(O)O2)O4)O3 [Bryostatin 1] (drug 100 nM)")
0.0548
>>> numeric_readout("Cc1ccc(Nc2nccc(N(C)c3ccc4c(C)n(C)nc4c3)n2)cc1S(N)(=O)=O [Pazopanib] (drug 10000 nM)")
-2.15

Pending compound:
Sample Cc1ccc(-c2cc(C(F)(F)F)nn2-c2ccc(S(N)(=O)=O)cc2)cc1 [Celecoxib] (drug 10000 nM) ; viability inhibition at highest dose observed: -0.849

----------
Tested on: T-47D
Experiment: viability inhibition at highest dose (% inhibition); higher = more growth inhibition
Details: 4-OH-tamoxifen in medium 0 µM; 72 h
viability inhibition at highest dose for assorted compounds
Response field accepts a number only; no unit should be typed.

Before answering, review these 5 worked examples.
>>> numeric_readout("CN(C)/N=N/c1[nH]cnc1C(N)=O [Dacarbazine] (drug 10000 nM)")
-8.78
>>> numeric_readout("CN1CCc2c(c3ccccc3n2Cc2ccc(C(=O)NO)cc2)C1 [Tubastatin A] (drug 10000 nM)")
2.46
>>> numeric_readout("Cc1ccc(Nc2nccc(N(C)c3ccc4c(C)n(C)nc4c3)n2)cc1S(N)(=O)=O [Pazopanib] (drug 10000 nM)")
12.7
>>> numeric_readout("O=C(Nc1c[nH]nc1-c1nc2ccc(CN3CCOCC3)cc2[nH]1)NC1CC1 [AT9283] (drug 1000 nM)")
-42.6
>>> numeric_readout("Cn1c(Nc2ccc(C(F)(F)F)cc2)nc2cc(Oc3ccnc(-c4ncc(C(F)(F)F)[nH]4)c3)ccc21 [RAF265] (drug 1000 nM)")
12.4

For this compound ( CN(C)CCN1C(=O)c2cccc3cc(N)cc(c23)C1=O [Amonafide] (drug 10000 nM) ), measured viability inhibition at highest dose is 23.6

The compound identified as COc1cc(Nc2ncc(F)c(Nc3ccc4c(n3)N(COP(=O)(O)O)C(=O)C(C)(C)O4)n2)cc(OC)c1OC (drug 10000 nM) registered its viability inhibition at highest dose at 40.2

Lab note: measured viability inhibition at highest dose of O=NN(CCCl)C(=O)NCCCl [Carmustine] (drug 10000 nM) was -12.6

----------
Reported drug sensitivity score values for a set of compounds
Tested on: BT-474 Tam2
Test: drug sensitivity score (DSS) (DSS (dimensionless)); higher = more sensitive; extreme values may be limits of the assay
Settings: 4-OH-tamoxifen in medium 1 µM; 72 h
Hey, just send me the number, nothing else.

>>> numeric_readout("C=CCN(/C=C1/C(=O)O[C@H](COC)[C@@]2(C)C1=C(O)C(=O)C1=C2[C@H](OC(C)=O)C[C@]2(C)C(=O)CC[C@@H]12)CC=C [Sonolisib (PX-866)]")
0
>>> numeric_readout("CNNCc1ccc(C(=O)NC(C)C)cc1 [Procarbazine]")
0
>>> numeric_readout("N#Cc1ccc(COC[C@H]2O[C@@H](n3c(NCc4ccc(Cl)c(Cl)c4)nc4c(N)ncnc43)[C@H](O)[C@@H]2O)cc1")
3.17
>>> numeric_readout("Cc1ccc(NC(=O)c2ccc(CN3CCN(C)CC3)cc2)cc1Nc1nccc(-c2cccnc2)n1 [Imatinib]")
1.21
>>> numeric_readout("N#Cc1ccc(C(c2ccc(C#N)cc2)n2cncn2)cc1 [Letrozole]")
0

Let us move to another entry and its drug sensitivity score.
Record Oc1ncnc2[nH]ncc12 [Allopurinol] . Reported drug sensitivity score: 0

The measurements presented in this section are drawn from the supplement of paper PMC4932681.
